target: Human full-length SHP2 recombinant protein (Homo sapiens (Human), UniProt Q06124); assay: Assay of full-length SHP2 phosphatase activity; type: biochemical; settings: DiFMUP substrate, with activating peptide
Sequence (Q06124 whole entry): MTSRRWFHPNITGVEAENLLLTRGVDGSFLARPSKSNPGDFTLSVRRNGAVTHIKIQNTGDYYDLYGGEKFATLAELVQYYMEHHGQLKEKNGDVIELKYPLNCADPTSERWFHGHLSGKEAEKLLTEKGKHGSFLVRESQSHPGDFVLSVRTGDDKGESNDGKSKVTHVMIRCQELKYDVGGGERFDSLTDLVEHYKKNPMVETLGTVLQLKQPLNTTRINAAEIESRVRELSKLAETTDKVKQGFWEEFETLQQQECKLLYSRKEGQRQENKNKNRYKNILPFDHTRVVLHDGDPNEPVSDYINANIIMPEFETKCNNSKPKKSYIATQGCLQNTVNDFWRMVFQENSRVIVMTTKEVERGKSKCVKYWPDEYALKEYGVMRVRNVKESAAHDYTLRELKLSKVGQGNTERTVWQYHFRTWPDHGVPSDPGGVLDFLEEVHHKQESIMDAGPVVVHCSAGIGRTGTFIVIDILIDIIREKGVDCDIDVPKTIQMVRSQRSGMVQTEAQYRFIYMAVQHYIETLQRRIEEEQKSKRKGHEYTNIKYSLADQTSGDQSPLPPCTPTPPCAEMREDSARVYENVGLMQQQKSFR
QUANTITY_MEASURED: pIC50
Lab note: report pIC50 as minus log10 of the concentration in molar units, number only.

Example results:
Value of pIC50 reported for the compound CNC(=O)C#Cc1ccc2c(c1)[C@@H](N)C1(CCN(c3ncc(Sc4ccnc(N)c4Cl)nn3)CC1)C2 [Compound 250] is 9.00

Value of pIC50 reported for the compound C#Cc1ccc2c(c1)[C@@H](N)C1(CCN(c3cc(=O)n(-c4cccc(C(F)(F)F)c4Cl)c(C)n3)CC1)C2 [Compound 106] is 8.05

Value of pIC50 reported for the compound CCNC(=O)C#Cc1ccc2c(c1)[C@@H](N)C1(CCN(c3ncc(Sc4ccnc(N)c4Cl)nc3C)CC1)C2 [Compound 290] is 9.00

Value of pIC50 reported for the compound C#Cc1ccc2c(c1)[C@@H](N)C1(CCN(c3cc(=O)n(-c4ccc(F)c(OC)c4Cl)c(C)n3)CC1)C2 (atropisomer, axis not shown) [Compound 161] is 9.00

Value of pIC50 reported for the compound COCCN(C)C(=O)C#Cc1ccc2c(c1)[C@@H](N)C1(CCN(c3cnc(Sc4ccnc(N)c4Cl)cn3)CC1)C2 [Compound 301] is 9.40

New cases:
Value of pIC50 reported for the compound C#Cc1ccc2c(c1)CC1(CCN(c3cnc(Sc4ccnc(N)c4Cl)c(N)n3)CC1)[C@@H]2N [Compound 2] is 8.30

Value of pIC50 reported for the compound CC#Cc1ccc2c(c1)[C@@H](N)C1(CCN(c3cnc(Sc4ccnc(N)c4Cl)c(N)n3)CC1)C2 [Compound 131] is 8.52

Value of pIC50 reported for the compound CNC(=O)C#Cc1ccc2c(c1)[C@@H](N)C1(CCN(c3ncc(Sc4ccnc(N)c4Cl)nc3C)CC1)O2 [Compound 266] is 8.30

Value of pIC50 reported for the compound COCC#Cc1ccc2c(c1)[C@@H](N)C1(CCN(c3ncc(Sc4ccnc(N)c4Cl)c4nncn34)CC1)C2 [Compound 147] is 8.52

Value of pIC50 reported for the compound CNC(=O)C#Cc1ccc2c(c1)[C@@H](N)C1(CCN(c3ncc(Sc4cccnc4C(F)(F)F)nn3)CC1)C2 [Compound 246] is 6.88

Value of pIC50 reported for the compound NC(=O)C#Cc1ccc2c(c1)[C@@H](N)C1(CCN(c3ncc(Sc4ccnc(N)n4)nc3CO)CC1)C2 [Compound 122] is 9.22

Value of pIC50 reported for the compound Cc1nc(Sc2ccnc(N)c2Cl)c(N)nc1N1CCC2(CC1)Cc1ccc(C#CC(=O)NC3CC3)cc1[C@H]2N [Compound 225] is 8.70
